In this section, each of the binders is paired with its reported apparent K (half saturation).
Target: PriB-SSBc (chimera KpPriB 1-98 fused to KpSSB 112-174) (Klebsiella pneumoniae, UniProt A6THB2 1-98+A6TGW7:112-174, internal_change)
Experiment: EMSA; monomer conc.; 1 complex; EMSA: 20 mM Tris-HCl pH 8.0, 100 mM NaCl, 25 C, 30 min, 1.7 nM 32P-ssDNA; 8% native PAGE in TBE at 4 C
Measurement setup: protein: recombinant; tags: none (tag-free); chain copies: 2; label: 5'-32P
Observable: apparent K (half saturation) (nM)

> print(dat)
                                     binder  quantitative.readout
1       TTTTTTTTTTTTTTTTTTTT (ssDNA) [dT20]                  2120
2  TTTTTTTTTTTTTTTTTTTTTTTTT (ssDNA) [dT25]                  1150
3  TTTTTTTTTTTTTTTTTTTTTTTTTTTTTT (ssDNA) [dT30]                   940
4  TTTTTTTTTTTTTTTTTTTTTTTTTTTTTTTTTTTTTTTTTTTTTTTTTT (ssDNA) [dT50]                   290
5  TTTTTTTTTTTTTTTTTTTTTTTTTTTTTTTTTTTTTTTT (ssDNA) [dT40]                   840

Origin of the recorded values: paper PMC8509808
